# key: entry, value: SPOT signal as a fraction of Bim BH3's signal on the same receptor and array
- testSystem: Bcl-xL, Q07817
- Sequence (Q07817 1-209): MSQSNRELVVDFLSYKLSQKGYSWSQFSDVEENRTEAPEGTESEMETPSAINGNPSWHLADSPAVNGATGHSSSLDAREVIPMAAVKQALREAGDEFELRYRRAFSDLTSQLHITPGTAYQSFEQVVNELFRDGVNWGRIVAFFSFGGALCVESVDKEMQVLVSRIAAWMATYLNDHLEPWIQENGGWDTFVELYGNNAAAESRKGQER
- measurementProtocol: peptide SPOT array, c-Myc-tagged receptor at 1 uM or 100 nM, anti-c-Myc-Cy3
readoutLabel: SPOT signal as a fraction of Bim BH3's signal on the same receptor and array

# binder, reportedMeasurement
records = [
    ("GMTMIEICEKLEDCSRKLIKENGLNA [METAP2]", 0.03),
    ("ALKKADVGFADGIAGTDVAKEASDII [ATP2B1]", 0.01),
    ("TLHFNQRGTWLASGLDDLKVVVWDWV [DCAF8]", 0.02),
    ("SATHDEAVQVLKKTGKEVVLEVKYMK [SNTA1]", 0.15),
]
